Where these numbers come from: patent US20210155689A1

# Measured On: T1, human LAG-3 protein with hFc tag (hLAG-3-hFc protein) (human, UniProt P18627 23-450)
# T1 construct: also called immunogen 1; LAG-3 extracellular domain protein; not shown: human IgG Fc fragment (hFc) of the pCpC vector
# T1 sequence: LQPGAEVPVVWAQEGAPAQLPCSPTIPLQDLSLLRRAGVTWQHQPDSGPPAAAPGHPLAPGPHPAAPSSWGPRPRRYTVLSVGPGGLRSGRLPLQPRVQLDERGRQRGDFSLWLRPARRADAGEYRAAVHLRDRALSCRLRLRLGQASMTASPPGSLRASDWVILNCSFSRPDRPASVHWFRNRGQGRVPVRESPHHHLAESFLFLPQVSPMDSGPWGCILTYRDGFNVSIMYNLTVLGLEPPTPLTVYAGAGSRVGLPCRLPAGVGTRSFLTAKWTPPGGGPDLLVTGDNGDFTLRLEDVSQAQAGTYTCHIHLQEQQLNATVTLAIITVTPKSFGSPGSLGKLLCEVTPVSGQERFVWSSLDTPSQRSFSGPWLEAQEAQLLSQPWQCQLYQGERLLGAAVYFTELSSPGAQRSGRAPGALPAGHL
# Assay Notes: ELISA, hLAG-3-hFc coated; 0.6667 nM
Result Type: OD450

So, 405B8H3 (LAG-3 mouse-human chimeric antibody) (antibody, V domains shown, also called mouse-human chimeric antibody 405B8H3) VH: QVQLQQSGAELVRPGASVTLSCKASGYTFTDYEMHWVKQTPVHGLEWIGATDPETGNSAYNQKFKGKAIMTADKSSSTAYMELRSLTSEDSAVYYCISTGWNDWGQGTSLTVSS VL: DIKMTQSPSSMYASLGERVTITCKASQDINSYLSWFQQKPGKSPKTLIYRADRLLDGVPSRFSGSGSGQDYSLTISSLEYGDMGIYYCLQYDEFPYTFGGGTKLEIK ? Its OD450 was 3.51 OD450

So, 409B11E12 (LAG-3 mouse-human chimeric antibody) (antibody, V domains shown) VH: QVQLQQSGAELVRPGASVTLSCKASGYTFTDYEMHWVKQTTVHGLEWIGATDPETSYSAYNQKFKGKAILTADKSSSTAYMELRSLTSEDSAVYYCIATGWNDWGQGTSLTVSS VL: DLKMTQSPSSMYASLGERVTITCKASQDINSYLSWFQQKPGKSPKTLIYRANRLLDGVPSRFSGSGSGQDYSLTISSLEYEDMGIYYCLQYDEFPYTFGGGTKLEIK ? Its OD450 was 3.55 OD450

So, 409D4E10 (LAG-3 mouse-human chimeric antibody) (antibody, V domains shown) VH: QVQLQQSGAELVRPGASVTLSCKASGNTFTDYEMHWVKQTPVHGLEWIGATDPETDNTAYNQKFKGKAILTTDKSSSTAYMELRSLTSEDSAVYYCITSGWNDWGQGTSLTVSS VL: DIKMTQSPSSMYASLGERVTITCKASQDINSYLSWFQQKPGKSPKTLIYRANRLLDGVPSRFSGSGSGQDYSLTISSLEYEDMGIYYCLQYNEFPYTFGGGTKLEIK ? Its OD450 was 3.76 OD450

So, 556F6B8 (LAG-3 mouse-human chimeric antibody) (antibody, V domains shown, also called 556F8B8) VH: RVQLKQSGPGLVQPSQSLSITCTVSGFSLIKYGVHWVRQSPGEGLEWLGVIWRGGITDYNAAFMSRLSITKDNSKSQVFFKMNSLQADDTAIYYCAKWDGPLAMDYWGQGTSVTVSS VL: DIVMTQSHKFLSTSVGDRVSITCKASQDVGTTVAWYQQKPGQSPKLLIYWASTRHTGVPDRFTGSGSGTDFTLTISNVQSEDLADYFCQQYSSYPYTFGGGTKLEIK ? Its OD450 was 3.76 OD450

So, 105F1E10 (LAG-3 mouse-human chimeric antibody) (antibody, V domains shown) VH: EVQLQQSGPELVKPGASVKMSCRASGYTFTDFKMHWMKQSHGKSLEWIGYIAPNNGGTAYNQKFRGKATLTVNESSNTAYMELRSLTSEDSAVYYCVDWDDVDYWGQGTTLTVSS VL: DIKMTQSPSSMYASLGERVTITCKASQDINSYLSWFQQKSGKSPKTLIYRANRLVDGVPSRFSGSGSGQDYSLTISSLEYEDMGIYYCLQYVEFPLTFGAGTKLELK ? Its OD450 was 3.46 OD450
